pIC50: −log10 of the molar value.
These molecules were tested on mTOR (Homo sapiens); pIC50 is the recorded read-out.
Sequence (P42345 1360-2549 limits assumed): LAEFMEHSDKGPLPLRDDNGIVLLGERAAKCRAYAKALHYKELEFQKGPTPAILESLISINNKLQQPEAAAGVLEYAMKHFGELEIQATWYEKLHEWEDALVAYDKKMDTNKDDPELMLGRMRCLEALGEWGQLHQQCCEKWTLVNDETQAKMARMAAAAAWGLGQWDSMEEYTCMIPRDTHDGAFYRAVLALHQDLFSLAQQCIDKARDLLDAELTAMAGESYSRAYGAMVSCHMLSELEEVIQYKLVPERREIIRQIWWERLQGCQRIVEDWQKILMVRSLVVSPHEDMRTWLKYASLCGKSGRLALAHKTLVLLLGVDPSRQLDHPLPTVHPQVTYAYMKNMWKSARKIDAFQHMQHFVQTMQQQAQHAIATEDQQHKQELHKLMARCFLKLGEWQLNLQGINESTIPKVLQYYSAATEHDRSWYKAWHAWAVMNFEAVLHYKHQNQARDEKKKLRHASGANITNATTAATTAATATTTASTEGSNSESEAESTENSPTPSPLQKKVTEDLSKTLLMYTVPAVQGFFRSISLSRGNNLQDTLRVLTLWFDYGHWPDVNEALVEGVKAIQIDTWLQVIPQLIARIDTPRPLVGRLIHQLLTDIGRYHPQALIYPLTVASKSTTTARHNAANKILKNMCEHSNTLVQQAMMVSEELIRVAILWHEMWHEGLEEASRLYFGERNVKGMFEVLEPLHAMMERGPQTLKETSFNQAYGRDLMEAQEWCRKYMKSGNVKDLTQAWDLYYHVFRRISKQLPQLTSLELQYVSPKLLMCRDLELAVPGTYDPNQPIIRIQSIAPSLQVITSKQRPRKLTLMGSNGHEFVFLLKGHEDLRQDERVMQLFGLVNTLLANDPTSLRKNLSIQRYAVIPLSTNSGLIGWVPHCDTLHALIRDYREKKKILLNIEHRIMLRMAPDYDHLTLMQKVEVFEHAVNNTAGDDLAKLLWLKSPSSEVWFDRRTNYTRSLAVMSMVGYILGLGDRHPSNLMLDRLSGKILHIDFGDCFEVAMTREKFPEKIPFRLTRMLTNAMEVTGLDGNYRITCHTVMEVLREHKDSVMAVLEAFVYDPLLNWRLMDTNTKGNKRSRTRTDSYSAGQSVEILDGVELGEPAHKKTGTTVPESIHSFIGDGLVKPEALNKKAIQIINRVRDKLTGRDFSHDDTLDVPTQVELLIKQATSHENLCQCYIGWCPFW
propertyLabel: pIC50

Recorded results for 8 molecules are shown here.
{"molecule": "CCOc1ccc(-c2ccc3ncc4c(c3c2)n(-c2cn(C)nc2C)c(=O)n4C)cc1OC [Example 29.3]", "studySystem": "mTOR (Homo sapiens)", "pIC50": 8.15}
{"molecule": "CCn1cc(-n2c(=O)n(C)c3cnc4ccc(-c5cncc(C(C)(C)C#N)c5)cc4c32)c(C)n1 [Example 220.2]", "studySystem": "mTOR (Homo sapiens)", "pIC50": 7.49}
{"molecule": "CCn1cc(-n2c(=O)n(C)c3cnc4ccc(-c5cncc(C6(C#N)CCC6)c5)cc4c32)c(C)n1 [Example 221.2]", "studySystem": "mTOR (Homo sapiens)", "pIC50": 7.25}
{"molecule": "Cc1nn(C)cc1-n1c(=O)n(C)c2cnc3ccc(-c4cc(O)cc(F)c4)cc3c21 [Example 33]", "studySystem": "mTOR (Homo sapiens)", "pIC50": 6.96}
{"molecule": "CCn1cc(-n2c(=O)n(C)c3cnc4ccc(-c5ccc(COC)nc5)cc4c32)c(C)n1 [Example 104]", "studySystem": "mTOR (Homo sapiens)", "pIC50": 7.28}
{"molecule": "COCc1ccc(-c2ccc3ncc4c(c3c2)n(-c2cn(C)nc2Cl)c(=O)n4C)cn1 [Example 203]", "studySystem": "mTOR (Homo sapiens)", "pIC50": 7.82}
{"molecule": "Cc1nn(C)cc1-n1c(=O)n(C)c2cnc3ccc(-c4cncc(N(C)C)c4)cc3c21 [Example 178]", "studySystem": "mTOR (Homo sapiens)", "pIC50": 7.82}
{"molecule": "CCOc1ccc(-c2ccc3ncc4c(c3c2)n(-c2cn(C(C)C)nc2C)c(=O)n4C)cn1 [Example 3.7]", "studySystem": "mTOR (Homo sapiens)", "pIC50": 7.64}

A: Cc1nn(CC(=O)N2CCC2)cc1-n1c(=O)n(C)c2cnc3ccc(-c4cncc(OC(C)C)c4)cc3c21 [Example 205]
B: CNc1ncc(-c2ccc3ncc4c(c3c2)n(-c2c(C)nn(C)c2C)c(=O)n4C)cc1Cl [Example 146.4]
C: CNc1cc(-c2ccc3ncc4c(c3c2)n(-c2cn(C(C)C)nc2C)c(=O)n4C)cnc1CO [Example 158.2]
Given 3 molecules, produce a descending ranking by pIC50. Put the labels in the requested order and list them out.
C, A, B

* * *

These compounds were tested on mTOR (Homo sapiens); IC50 is the recorded read-out.
propertyLabel: IC50 (nM)

{"structureString": "CCOc1cncc(-c2ccc3ncc4c(c3c2)n(-c2cn(CC(=O)N(C)C)nc2C)c(=O)n4C)c1", "studySystem": "mTOR (Homo sapiens)", "propertyLabel": "IC50", "scaleUnit": "nM", "reported": 52}

P: COc1ccc(-c2ccc3ncc4c(c3c2)n(-c2cnn(C)c2C)c(=O)n4C)cn1
Q: CNS(=O)(=O)c1cccc(-c2ccc3ncc4c(c3c2)n(-c2cn(C)nc2C)c(=O)n4C)c1
// compare measured IC50 between P and Q ; output the lower one Selection: enter the item's label.
Q
(Q: 69 nM, P: 151 nM)

* * *

# studySystem: PI3K alpha (Homo sapiens, UniProt P42336)
# Construct: p85(iSH2) fusion partner (see partner chain) (N); His tag (C); Tn5 (Trichoplusia ni) or TiniPro insect cells
# Sequence (P42336 with tags, fused parts or gaps limits assumed): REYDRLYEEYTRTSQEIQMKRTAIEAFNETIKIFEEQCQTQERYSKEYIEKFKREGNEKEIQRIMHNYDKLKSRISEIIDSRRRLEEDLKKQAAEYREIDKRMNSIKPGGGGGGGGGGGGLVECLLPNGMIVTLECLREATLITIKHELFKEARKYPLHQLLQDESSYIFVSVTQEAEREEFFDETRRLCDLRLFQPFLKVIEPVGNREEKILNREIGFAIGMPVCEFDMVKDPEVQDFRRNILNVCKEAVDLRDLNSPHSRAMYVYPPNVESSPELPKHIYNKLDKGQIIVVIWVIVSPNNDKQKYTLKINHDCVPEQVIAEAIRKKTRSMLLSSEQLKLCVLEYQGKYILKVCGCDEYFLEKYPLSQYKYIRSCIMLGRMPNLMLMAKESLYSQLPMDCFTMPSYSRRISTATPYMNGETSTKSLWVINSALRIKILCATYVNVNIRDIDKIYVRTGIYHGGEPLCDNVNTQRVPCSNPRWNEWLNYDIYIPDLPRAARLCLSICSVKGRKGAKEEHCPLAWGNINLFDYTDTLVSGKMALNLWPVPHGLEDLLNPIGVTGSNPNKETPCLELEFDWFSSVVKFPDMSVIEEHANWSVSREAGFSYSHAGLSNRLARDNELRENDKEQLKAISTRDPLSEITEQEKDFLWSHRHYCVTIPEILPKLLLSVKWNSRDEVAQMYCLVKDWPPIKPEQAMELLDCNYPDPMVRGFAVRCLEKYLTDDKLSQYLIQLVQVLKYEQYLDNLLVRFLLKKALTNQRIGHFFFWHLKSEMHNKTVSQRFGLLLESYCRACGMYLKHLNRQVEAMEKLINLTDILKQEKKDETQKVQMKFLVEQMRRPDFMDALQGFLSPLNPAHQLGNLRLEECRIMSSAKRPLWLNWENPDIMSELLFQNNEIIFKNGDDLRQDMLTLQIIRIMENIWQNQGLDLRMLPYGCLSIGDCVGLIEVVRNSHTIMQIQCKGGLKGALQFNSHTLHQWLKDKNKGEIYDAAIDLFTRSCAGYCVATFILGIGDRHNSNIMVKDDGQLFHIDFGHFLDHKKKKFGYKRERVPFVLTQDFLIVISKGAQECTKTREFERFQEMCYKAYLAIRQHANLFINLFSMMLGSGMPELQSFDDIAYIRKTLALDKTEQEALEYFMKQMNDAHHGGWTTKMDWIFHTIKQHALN
# protocol: PI3K alpha kinase assay (Kinase-Glo luminescence)
pIC50: −log10 of the molar value.
propertyLabel: pIC50

Recorded results for 8 compounds are shown here.
{"structureString": "CNc1cc(-c2ccc3ncc4c(c3c2)n(-c2cn(C)nc2C)c(=O)n4C)cnc1F", "pIC50": 8.05}
{"structureString": "Cc1nn(C)cc1-n1c(=O)n(C)c2cnc3ccc(-c4cncc(C5(O)CCCC5)c4)cc3c21", "pIC50": 7.89}
{"structureString": "CCOc1ccc(-c2ccc3ncc4c(c3c2)n(-c2cn(CC(=O)N3CCOCC3)nc2C)c(=O)n4C)cn1", "pIC50": 7.04}
{"structureString": "COc1ncc(-c2ccc3ncc4c(c3c2)n(-c2cn(C)nc2Cl)c(=O)n4C)cc1N", "pIC50": 7.74}
{"structureString": "CCN(CC)c1cncc(-c2ccc3ncc4c(c3c2)n(-c2cn(C)nc2C)c(=O)n4C)c1", "pIC50": 7.44}
{"structureString": "Cc1nn(C(C)C)cc1-n1c(=O)n(C)c2cnc3ccc(-c4cnc(Cl)c(N)c4)cc3c21", "pIC50": 7.57}
{"structureString": "Cn1cc(-n2c(=O)n(C)c3cnc4ccc(-c5ccc(CO)nc5)cc4c32)c(Cl)n1", "pIC50": 8.52}
{"structureString": "Cc1nn(C)cc1-n1c(=O)n(C)c2cnc3ccc(-c4cnc(F)c(N(C)C)c4)cc3c21", "pIC50": 8.22}

1: CNC(=O)c1cc(-c2ccc3ncc4c(c3c2)n(-c2cn(C)nc2C)c(=O)n4C)cnc1OC
2: CCOc1ncc(-c2ccc3ncc4c(c3c2)n(-c2cn(C)nc2C)c(=O)n4C)cc1N(C)C(C)=O
// compare measured pIC50 between 1 and 2 ; output the lower one Selection: enter the item's label.
2
(2: 7.04, 1: 7.55)

P: CCn1cc(-n2c(=O)n(C)c3cnc4ccc(-c5cncc(NC)c5)cc4c32)c(C)n1
Q: Cc1nn(C)cc1-n1c(=O)n(C)c2cnc3ccc(-c4cnc(N)c(C(=O)NC(C)C)c4)cc3c21
R: CCN(C)C(=O)Cn1cc(-n2c(=O)n(C)c3cnc4ccc(-c5ccccc5)cc4c32)c(C)n1
S: COc1cc(-c2ccc3ncc4c(c3c2)n(-c2cn(C)nc2C)c(=O)n4C)cnc1C
T: COCCN(C)C(=O)Cn1cc(-n2c(=O)n(C)c3cnc4ccc(-c5ccccc5)cc4c32)c(C)n1
Given 5 compounds, produce a descending ranking by pIC50. Put the labels in the requested order and list them out.
S, Q, P, R, T

a: Cc1noc(C)c1-n1c(=O)n(C)c2cnc3ccc(-c4cnc(N)c(C(F)(F)F)c4)cc3c21
b: Cc1nn(C(C)C)cc1-n1c(=O)n(C)c2cnc3ccc(-c4ccc(CO)nc4)cc3c21
c: COCc1ncc(-c2ccc3ncc4c(c3c2)n(-c2cn(C)nc2C)c(=O)n4C)cc1OC
d: CCOc1cncc(-c2ccc3ncc4c(c3c2)n(-c2c(C)cnn2C)c(=O)n4C)c1
Given 4 compounds, produce a descending ranking by pIC50. Put the labels in the requested order and list them out.
c, a, b, d
(c: 7.74, a: 7.52, b: 7.23, d: 6.81)

1: Cc1nn(C)cc1-n1c(=O)n(C)c2cnc3ccc(-c4ccc5c(c4)CC(=O)N5)cc3c21
2: Cc1nn(CC(=O)N2CCOCC2)cc1-n1c(=O)n(C)c2cnc3ccc(-c4cnc(N5CCCC5)nc4)cc3c21
3: CCn1c(=O)n(C)c2ncc(-c3ccc4ncc5c(c4c3)n(-c3cn(C)nc3C)c(=O)n5C)cc21
4: CCN(CC)C(=O)Cn1cc(-n2c(=O)n(C)c3cnc4ccc(-c5cnc(N6CCCC6)nc5)cc4c32)c(C)n1
Number of compounds to sort: 4. Sort criterion: pIC50, ascending. Put the labels in the requested order and list them out.
2, 4, 1, 3

* * *

# studySystem: PI3K beta (Homo sapiens)
# Construct: for the full-length p110-b subunit are generated and fused by overlapping PCR; p85(iSH2) fusion partner (see partner chain) (N); His tag (C); Tn5 (Trichoplusia ni) or TiniPro insect cells
# Sequence (P42338 with tags, fused parts or gaps limits assumed): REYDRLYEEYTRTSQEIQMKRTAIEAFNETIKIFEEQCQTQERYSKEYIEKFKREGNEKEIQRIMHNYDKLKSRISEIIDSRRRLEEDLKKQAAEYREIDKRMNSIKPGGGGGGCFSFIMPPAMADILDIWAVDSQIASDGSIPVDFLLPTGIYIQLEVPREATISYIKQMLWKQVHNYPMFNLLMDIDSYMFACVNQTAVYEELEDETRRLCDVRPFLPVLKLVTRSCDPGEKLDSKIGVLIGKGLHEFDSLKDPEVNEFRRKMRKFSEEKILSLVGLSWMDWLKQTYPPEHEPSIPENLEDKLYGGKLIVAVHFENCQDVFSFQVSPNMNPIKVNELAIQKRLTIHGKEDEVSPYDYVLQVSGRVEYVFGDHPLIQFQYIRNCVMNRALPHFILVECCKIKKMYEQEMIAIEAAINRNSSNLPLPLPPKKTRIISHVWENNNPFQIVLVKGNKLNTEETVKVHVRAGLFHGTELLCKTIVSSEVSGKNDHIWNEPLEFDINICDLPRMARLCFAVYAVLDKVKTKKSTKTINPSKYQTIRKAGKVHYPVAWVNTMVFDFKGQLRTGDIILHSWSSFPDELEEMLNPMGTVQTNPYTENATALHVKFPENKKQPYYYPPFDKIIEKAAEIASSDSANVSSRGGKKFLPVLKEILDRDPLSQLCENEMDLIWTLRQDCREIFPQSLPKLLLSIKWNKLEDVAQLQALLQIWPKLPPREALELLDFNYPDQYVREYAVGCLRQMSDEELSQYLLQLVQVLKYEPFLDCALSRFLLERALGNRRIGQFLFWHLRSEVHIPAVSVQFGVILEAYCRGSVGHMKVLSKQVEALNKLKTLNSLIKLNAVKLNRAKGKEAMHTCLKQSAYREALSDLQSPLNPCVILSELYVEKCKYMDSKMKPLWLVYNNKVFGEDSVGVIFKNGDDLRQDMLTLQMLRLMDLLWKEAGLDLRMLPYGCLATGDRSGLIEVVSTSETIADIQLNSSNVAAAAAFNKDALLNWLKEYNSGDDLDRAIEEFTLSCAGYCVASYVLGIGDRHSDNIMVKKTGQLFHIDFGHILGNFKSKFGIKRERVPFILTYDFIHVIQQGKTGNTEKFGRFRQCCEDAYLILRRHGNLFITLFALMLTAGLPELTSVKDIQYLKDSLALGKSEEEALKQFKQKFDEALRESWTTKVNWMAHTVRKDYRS
# protocol: PI3K beta kinase assay (Kinase-Glo luminescence)
pIC50: −log10 of the molar value.
propertyLabel: pIC50

Recorded results for 5 compounds are shown here.
{"structureString": "Cc1ccc(-c2ccc3ncc4c(c3c2)n(-c2cc(C)nn2C)c(=O)n4C)cn1", "reported": 6.39}
{"structureString": "Cc1nn(C)cc1-n1c(=O)n(C)c2cnc3ccc(-c4ccc(N5CCN(C)CC5)nc4)cc3c21", "reported": 6.26}
{"structureString": "CCn1nccc1-n1c(=O)n(C)c2cnc3ccc(-c4ccc(OC)nc4)cc3c21", "reported": 6.21}
{"structureString": "CCn1c(=O)n(-c2cn(C)nc2C)c2c3nc(-c4ccc(OC)c(OC)c4)ccc3ncc21", "reported": 6.30}
{"structureString": "Cc1nn(C)cc1-n1c(=O)n(C)c2cnc3ccc(-c4ccc(N5CCC5)nc4)cc3c21", "reported": 6.10}

I: COc1ccc(-c2ccc3ncc4c(c3c2)n(-c2cn(C)nc2C)c(=O)n4C)cn1
II: CCOc1cncc(-c2ccc3ncc4c(c3c2)n(-c2cn(CC(=O)N(C)C)nc2C)c(=O)n4C)c1
III: CCNc1cc(-c2ccc3ncc4c(c3c2)n(-c2cn(C)nc2C)c(=O)n4C)cnc1Cl
IV: Cc1nn(C)cc1-n1c(=O)n(C)c2cnc3ccc(-c4cncc(NC5CCC5)c4)cc3c21
Number of compounds to sort: 4. Sort criterion: pIC50, ascending. Put the labels in the requested order and list them out.
II, IV, I, III

a: Cc1nn(C)cc1-n1c(=O)n(C)c2cnc3ccc(-c4ccc(OCCO)nc4)cc3c21
b: CCOc1cccc(-c2ccc3ncc4c(c3c2)n(-c2cn(C)nc2C)c(=O)n4C)c1
// compare measured pIC50 between a and b ; output the lower one Selection: enter the item's label.
b

I: CCn1cc(-n2c(=O)n(C)c3cnc4ccc(-c5cnc(NC)nc5OC)cc4c32)c(C)n1
II: CNc1ncc(-c2ccc3ncc4c(c3c2)n(-c2cn(C(C)C)nc2C)c(=O)n4C)cc1Cl
// compare measured pIC50 between I and II ; output the lower one Selection: enter the item's label.
II
(II: 6.68, I: 7.05)

P: CNC(=O)c1cc(-c2ccc3ncc4c(c3c2)n(-c2cn(C)nc2C)c(=O)n4C)cnc1OC
Q: CCOc1cc(-c2ccc3ncc4c(c3c2)n(-c2cn(C(C)C)nc2C)c(=O)n4C)cnc1COC
Name the one with the greater pIC50 value, either P or Q as given. Selection: enter the item's label.
P
